assay: yeast display, Sf9 membrane polyspecificity reagent, FACS + sequencing; frameworks hold sequencing errors
Outcome Measure: polyreactivity (PSR sort gate)

Solved cases (6 shown):
LVQHQESGGGLVQAGGSLRLSCAASGTIFLRYYMGWYRQAPGKQREFVAAINIGATANYADSLKGRFTISRDNAKNTVYLQMKSLYPQDTAVYYCAVYYPIYRQHDYWGQGSQVTVSS	low polyreactivity
QVQLVESGRGLVQAGGSLRLSCAASGRTFGYYAMGWYRKAPGKERELVAASTYSGARTYYADSVKGRFTISRDNAKNTVYLQRNSLKPEDTAVYYCAADTYYDDGYYYWCQGTQVTVSS	high polyreactivity
QVQLVESGGGLVQAGGSLRLSCPASGRIVANAMGWYIQAPGKERELVAAISSVGSTNYADSVKGRFTISRDNAKNTVYLQMNSLKPEDTAVYYCAARGYRWYIAVDFWGQGTQVTVSS	low polyreactivity
QVQLVESGGGLVQAGGSLRLSCAASGFIFRQYAMGWYRQAPGKERELVAAISTGGGRTYYADSVKGRFTISRDNAKNTVYLQMNSLKPEDTAVYYCAVYYYKTYDYWGQGTQVTVSS	high polyreactivity
QVHLVESGVGLVQAGGSLRLSCASSGSTYKPNALGWYSQAPGKESEFVAAITSGSTYYADTVKGRYTISRDNAKYNVYLQMNSLKPEDTAVYYCATSVRGKSPYRKSGSYYYWGQGTQVTVSS	high polyreactivity
QVQLVESGGGLVQAGGSLRLSCAASGSIFDQNAMVWYRQAPGKERELVAAITRGGSTKYADSVKGRFTISRDNAKNTVYLQMNSLKPEDTAVYYCARTARRRYQPYEYWGQGTQVTVSS	low polyreactivity

## Task # polyreactivity (PSR sort gate) lookup, item "QVQLVESGGGLVQAGGSLRLSCAASGCTFLYYMGWYRQAPGKERELVSALTFSGGSTYYADSVKGRFTISRDNAKNTVYLQMNSLKPEDTAVDDGAAGWYDWPKYLLSVYTYYLYDYWGQGSQVTVSS"
## Result low polyreactivity

## Task Please report the recorded polyreactivity (PSR sort gate) for "QVQLVESGGGLVQAGGSLRLSCAASGSNFNYYTMGWYRQAPGKERELVAAITDSGGSTYYADSVMGRFTISRDNAKNTVYLQMNSLIPEDTAVYYCAAAVPELYEVRYHADYWGQGTQVTVST" .
## Result low polyreactivity

----------
assay: yeast display, Sf9 membrane polyspecificity reagent, FACS + sequencing; frameworks hold sequencing errors
Outcome Measure: polyreactivity (PSR sort gate)

QVQLEESGGGLVQAGGSLPLICAASGRIFATYAMGWYRQAPGKARELVAAISGRGSSTYYADSVKVRFTISRDNAKNTVYLQMNSLKPEDTAVSYCAAVVRHSFGYDSWGQCTQVTVSS	high polyreactivity
QVQLVESGGGLVQAGGSLRLSCAASGIIFRVNAMGWYRQAPGKERELVAAISSGGRTYYADSVKGRFTISGDNAKNTVSLQMNSLKPEDTAVYYCNAGRLRYIFKSYDYWGQGTQVSVSS	high polyreactivity
QVQLVESGGGLVQAGGSLRLSCAASGSIFVKYAMGWYRQAPGKERELVASITGRGGSTYYADSVKGRFTISRDNAKNTVYLQMNSLKPEDTAVYYCAARVASRHGWHNYWGQGSQVTVSS	high polyreactivity
QVQLVESGGGLVQAGGSLRLSCAASGRTFAKYAMAWYRQAPGKERELVAAINSSGGSTYYADSVKGRFTISRDNAKNTVYLQMNSLKPEDTAVYFCAALGIGSYRRYSGYDYWGQGTQVTVSS	low polyreactivity
QVQLVESGGGLVQAGGSLRLSCAASGSIFGLNAMGWYRPAHGKETELVAAISGGSTNYADSVKGRFTISRDNAKNTVYLQMNSLKTDDTAVYYCAARARRRYYYWGQGTQVTVSS	high polyreactivity

## Task State the recorded polyreactivity (PSR sort gate) for this entry: "QVQHVESGGGLVQAGGSLRLSCAASARTFHGYPLGVYRQAAGKETELVARINWSDGRTYYADSVKGRFTMSRDNAKNTVYFQMNSLKPEDTAFYYCAAEKTVSYAPAWYYYWGQGTQVTVSS"
## Result low polyreactivity

## Task Report polyreactivity (PSR sort gate) for "QVQLVESGGGLVQAGGSLRLSSAASGLIFVFYAMGWYRQAPGKERELVAAISTSGDRTYYADSVKGRFTISRDNAKNTVYLQMNSLKPEDTAVYYCAAGRRKVPYSREYYYWGQGTQVTVSS" please.
## Result high polyreactivity

## Task For "QVQLQESGGGLVQAGGSLRQSCASSGYIFPYNSMGWYRQAPGKERGLVACIAAGTTTNYADSVKGRFTISRDNAKNTVYLQMNSLKPEDAAVYYCAALNAFNTGHWYWGQGTQVTVSS" , what is its reported polyreactivity (PSR sort gate)?
## Result low polyreactivity

## Task For the sequence shown here, "QVQLVESGGGLVQAGGSLRLSCAASGFIFVNYMGWYRQAPGKERELVAAISRGGSTNYADSVKGRFTISRDTAKNTVYLQMNSLKPEDTAVYYCAAETWYSGYTYDSCGQGTQVTVSS" , give the reported polyreactivity (PSR sort gate).
## Result low polyreactivity

## Task Return reported polyreactivity (PSR sort gate); argument: "QDQLVESAGGLVQAGGSLRLSCAASGSTSQSNAMGWYREAPGKDRELVAAISWSGTSTYYADSVKGRFTISRDNAKNTVYLQMNRLKPEDTAGYYCAADYIFEYDYWGQGTQVTVSS"
## Result low polyreactivity

## Task Any idea what polyreactivity (PSR sort gate) was measured for "QVQLVESGGGLVQTGGSLRLSCAASGSTFYPNTMGWYRQAPGKERELVAAITNGGSTNYADSVKGRFTISRDNAKNTVYLQMNSLKPEDTAVYYCAALYYRFLLGWYKYGYWGQGTQVTVSS" ?
## Result high polyreactivity

----------
test: yeast display, Sf9 membrane polyspecificity reagent, FACS + sequencing; frameworks hold sequencing errors
Outcome Measure: polyreactivity (PSR sort gate)

Please review the entries below; each comes with its answer.
QVQLVESGGGLVQAGGSLRLSCDASGSIFSYYAMGWYRQAPGKERELVAAITYRGGSTFYADSVKGRFTLSRDNAKNTVYFQMNRLKPEDTAVYYCATRYYVDQRYQYKYDYWGQGTQVTVSS	high polyreactivity
QVQLVESGGCLVQAGGSLRLSCAASGLIFLGYAMGWYRQAPGKERELVASIRTGGSTSYADSVKGRFTISRDNAKNTVYLQMYSLKPEDTAVYYCAADRGRPNLPGDYWGQGTQVTVSS	low polyreactivity
QVQLQEIGGSLVQAGGSLRLSGAASGNILVLPPGQVSPGAERELDATITGGSITYYADSVKGRFTISRDNAKNTVYLQMNSLKPEDTAVYYCAAVSLRKSYGYNYWGQGTLVTVSS	high polyreactivity
QVQLVESGGGLVQAGGSLRLSCAASGFTFKRYAMGWYRQAPGNERELVAAISYSGGSTYYADSVKWRFTISRDNAKNTVYLQMKSLKPEDTAVYYCAAPRGHGKYYSWGQGTQVTVSS	high polyreactivity
QVQLVESGGGLVQAGGSLRLSCAASGSTFYINAMGWYRQAPGKERELVADITVRGGNTYYADSVKGRFTISRDNAKNTVYLQMNSLKPEDTAVYYCNALLSGGRAGFDYWGQVTQVTVSS	high polyreactivity
QVQLVESGGGLVQAGGSLRLSCAASGSIFSFNAMGWYRQAPGKEREFVAAIFGVTRTYYADSVKGRFTISRDNAKNTVYLQMNSLKPEDTAVYYCAARPPYRRYSEPRFGYWGQGTQVTVSS	high polyreactivity
QVQLVESGGGLVQAGGSLRLSCAASVRTFEPNAMGWYRQAPGKERELVAAISSSDGSTYYADSVKGRFTISRDNAKNTVYLQMNSLKPEDTAVYYCAADAGYLYDWPYNYYYWGQGTQVTVSS	low polyreactivity
QVQLVESGGGLVQAGGSLRLSCAASGRTLARNAKGWYRQAPGKERELVASINGRTTRTYYADSVKGRFTISRDNAKNTVYLQMNSLKPEDTAVYYCAADPPGYVYGKRYYWGQGTQVTVSS	high polyreactivity
QVQLVESGGGLVQAGGSLRLSCAASGITFNRYAMGWYRQAPGKERELVAGISRGVSTYYADSVKGRFTISRDNAKNTVYLQMKSLKPEDTAVYYCAAKPVVRYVSFGYDYWGQGTQVTVSS	high polyreactivity
QVQLVESGGGLVQAGGSLRLTCAASGSIFDYYAMGWYRQAHGKERELVAAISDSGSTYYADSVKGRFTISRDNAKNTVYVQMNSLKAEDTAVYYCAAVLWSPYRSEPLDTYEYWGQGTQVTVSS	low polyreactivity

# evaluate next
## Task Recorded polyreactivity (PSR sort gate) of "QVQLVESGGGLVQAGGSLRLSCAASGIIFVYYGKGWYRQAPGKERELVAAISWSGDDTYYADSVKGRFTISRDNAKNTVYLQMNSLKPEDTAVYYCAARPGYVHIDFDYWGQGSQVTVSS" , please.
## Result low polyreactivity
